Every entry's value here was drawn from the Human Domainome abundance scans (Beltran et al. 2025).

B1: Tyrosine-protein kinase Lck, residues 63 to 120; numbered along this chain, P06239 (parent)
chain: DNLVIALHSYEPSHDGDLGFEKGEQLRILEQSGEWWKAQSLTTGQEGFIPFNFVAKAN

Variants of: B1
Assay: abundance fitness (aPCA) (normalised: wild type 0, dead -1); higher = more abundant; growth selection in yeast, the domain comes from the species named
Settings: Homo sapiens
Class assignment keyed on abundance fitness, ranges bucket 1 (below -0.8), bucket 2 (-0.8 to below -0.2), bucket 3 (-0.2 or more)

[
  {
    "mutant": "T42H",
    "assigned.label": "bucket 3"
  },
  {
    "mutant": "I28F",
    "assigned.label": "bucket 1"
  },
  {
    "mutant": "P50K",
    "assigned.label": "bucket 2"
  },
  {
    "mutant": "L41Q",
    "assigned.label": "bucket 3"
  },
  {
    "mutant": "Y10H",
    "assigned.label": "bucket 3"
  },
  {
    "mutant": "G23V",
    "assigned.label": "bucket 1"
  },
  {
    "mutant": "G16C",
    "assigned.label": "bucket 2"
  },
  {
    "mutant": "D17W",
    "assigned.label": "bucket 3"
  },
  {
    "mutant": "F53A",
    "assigned.label": "bucket 3"
  },
  {
    "mutant": "L26W",
    "assigned.label": "bucket 1"
  },
  {
    "mutant": "D15A",
    "assigned.label": "bucket 3"
  },
  {
    "mutant": "W35Q",
    "assigned.label": "bucket 3"
  },
  {
    "mutant": "N2Y",
    "assigned.label": "bucket 2"
  },
  {
    "mutant": "L29P",
    "assigned.label": "bucket 1"
  },
  {
    "mutant": "G44E",
    "assigned.label": "bucket 2"
  },
  {
    "mutant": "A6Y",
    "assigned.label": "bucket 1"
  },
  {
    "mutant": "G33F",
    "assigned.label": "bucket 1"
  },
  {
    "mutant": "F51K",
    "assigned.label": "bucket 3"
  },
  {
    "mutant": "Q39L",
    "assigned.label": "bucket 2"
  },
  {
    "mutant": "I28H",
    "assigned.label": "bucket 1"
  }
]
